Entries and their IC50
# Tested on: HCT116-MTAP-KO
# Assay notes: Cell killing in HCT116 isogenic pair (Cell Titer-Glo viability), MTAP knock-out cells
# Format: cell-based, human
# Cond: Homo sapiens, HCT-116, 144 h, 6 days incubation, 0-10 μM, * = more than 50% viability inhibition at tested concentration without a full curve
Numbers only here, please. The scale is nM.

Solved cases (3 shown):
# Test smiles, Unit of measurement, IC50
records = [
    ("CN(C(=O)c1cc2nc(N)c3c(c2[nH]1)COC3)[C@@H]1COCc2nc(C(F)(F)F)ccc21", "nM", 113),
    ("C[C@H](c1ncccn1)N(Cc1ccc(I)cn1)C(=O)c1cc2nc(N)c3c(c2[nH]1)COC3", "nM", 7.8),
    ("Nc1nc2cc(C(=O)N(Cc3ccc(-c4c(F)cncc4F)cn3)Cc3c(Cl)cccc3Cl)[nH]c2c2c1COC2", "nM", 1.2),
]

Just so you know, measured IC50 for CO[C@@H]1CCOC[C@H]1N(Cc1ccc(-c2ccccc2)cn1)C(=O)c1cc2nc(N)c3c(c2[nH]1)COC3 came out at 2.4

Just so you know, measured IC50 for CN(C(=O)c1cc2nc(N)c3c(c2[nH]1)COC3)[C@H]1COCc2nc(C(F)(F)F)ccc21 came out at 1900

Just so you know, measured IC50 for CCN(C(=O)c1cc2nc(N)c3c(c2[nH]1)COC3)[C@@H](C)c1ccc(C(F)(F)F)cn1 came out at 3630

Just so you know, measured IC50 for C[C@H](c1ncccn1)N(Cc1ccc(-c2c(F)cccc2F)cn1)C(=O)c1cc2nc(N)c3c(c2[nH]1)COC3 came out at 1.8

* * *

# System: HCT116-MTAP-KO
# Assay notes: Cell killing in HCT116 isogenic pair (Cell Titer-Glo viability), MTAP knock-out cells
# Type: cell-based, human
# Cond: Homo sapiens, HCT-116, 144 h, 6 days incubation, 0-10 μM, * = more than 50% viability inhibition at tested concentration without a full curve
Entries and their IC50
Numbers only here, please. The scale is nM.

Solved cases (10 shown):
# Test smiles, Unit of measurement, IC50
data = [
    ("CN(C(=O)c1cc2nc(N)c3c(c2[nH]1)COC3)[C@@H]1COCc2cc(C#N)cc(F)c21", "nM", 17),
    ("CO[C@@H]1CCOC[C@H]1N(Cc1ccc(-c2c(F)cccc2F)cn1)C(=O)c1cc2nc(N)c3c(c2[nH]1)CO[C@@H]3C", "nM", 4.8),
    ("CCN(C(=O)c1cc2nc(N)c3c(c2[nH]1)COC3)[C@@H]1COCc2cc(Cl)ccc21", "nM", 34),
    ("C[C@H](c1c(F)cc(C(F)(F)F)cc1F)N(C)C(=O)c1cc2nc(N)c3c(c2[nH]1)COC3", "nM", 32),
    ("C[C@H](c1ncccn1)N(Cc1ncc(C(F)(F)F)cc1F)C(=O)c1cc2nc(N)c3c(c2[nH]1)COC3", "nM", 11),
    ("C[C@H]1OCc2c1c(N)nc1cc(C(=O)N(C)[C@@H]3COC4(CC4)c4cc(C(F)(F)F)ccc43)[nH]c21", "nM", 17),
    ("CN(C(=O)c1cc2nc(N)c3c(c2[nH]1)COC3)[C@@H]1COCc2cc(I)ccc21", "nM", 10),
    ("CCN(C(=O)c1cc2nc(N)c3c(c2[nH]1)CO[C@@H]3C)[C@H](C)c1ncc(C(F)(F)F)cc1F", "nM", 8.5),
    ("CCN(C(=O)c1cc2nc(N)c3c(c2[nH]1)COC3)[C@@H](C)c1ccc(C2CC2)cc1F", "nM", 1040),
    ("CCN(C(=O)c1cc2nc(N)c3c(c2[nH]1)COC3)[C@@H](C)c1ccc(C2CC2)cn1", "nM", 1610),
]

Just so you know, measured IC50 for C[C@@H](c1ncccn1)N(Cc1ccc(-c2c(F)cccc2F)cn1)C(=O)c1cc2nc(N)c3c(c2[nH]1)COC3 came out at 8.2

Just so you know, measured IC50 for CCN(C(=O)c1cc2nc(N)c3c(c2[nH]1)COC3)[C@H](C)c1ncc(C2CC2)cc1F came out at 5.6

Just so you know, measured IC50 for Nc1nc2cc(C(=O)N(Cc3ccc(-c4c(F)cccc4F)cn3)Cc3c(F)cccc3F)[nH]c2c2c1COC2 came out at 4.6

Just so you know, measured IC50 for COCCN(C(=O)c1cc2nc(N)c3c(c2[nH]1)COC3)[C@H](C)c1ncc(C(F)(F)F)cc1F came out at 64

Just so you know, measured IC50 for C[C@@H](c1c(F)cc(Br)cc1F)N(C)C(=O)c1cc2nc(N)c3c(c2[nH]1)COC3 came out at 2220

* * *

Entries and their IC50
# Tested on: HCT116-MTAP-KO
# Assay notes: Cell killing in HCT116 isogenic pair (Cell Titer-Glo viability), MTAP knock-out cells
# Type: cell-based, human
# Cond: Homo sapiens, HCT-116, 144 h, 6 days incubation, 0-10 μM, * = more than 50% viability inhibition at tested concentration without a full curve
Numbers only here, please. The scale is nM.

Solved cases (3 shown):
# Test smiles, Reported measurement
rows = [
    ("CCN(C(=O)c1cc2nc(N)c3c(c2[nH]1)COC3)[C@@H](C)c1ccc(C(F)(F)F)cc1F", 245),
    ("CN(C(=O)c1cc2nc(N)c3c(c2[nH]1)COC3)[C@@H]1COC2(CC2)c2cc(Br)ccc21", 24),
    ("CC(C)C(=O)N1Cc2cc(C(F)(F)F)ccc2[C@H](N(C)C(=O)c2cc3nc(N)c4c(c3[nH]2)COC4)C1", 1.1),
]

Just so you know, measured IC50 for C[C@@H](c1ccc(C(F)(F)F)cc1F)N(C)C(=O)c1cc2nc(N)c3c(c2[nH]1)COC3 came out at 316

Just so you know, measured IC50 for Nc1nc2cc(C(=O)N(Cc3ccc(-c4c(F)cccc4F)cc3F)[C@@H]3CCCc4cccnc43)[nH]c2c2c1COC2 came out at 11

Just so you know, measured IC50 for C[C@H](c1ccc(C(F)(F)F)cc1F)N(C)C(=O)c1cc2nc(N)c3c(c2[nH]1)CO[C@@H]3C came out at 19

Just so you know, measured IC50 for CCN(C(=O)c1cc2nc(N)c3c(c2[nH]1)COC3)[C@@H](C)c1ncc(C(F)(F)F)cc1F came out at 2200

Just so you know, measured IC50 for CCN(C(=O)c1cc2nc(N)c3c(c2[nH]1)COC3)[C@@H]1COC2(CC2)c2cc(C(F)(F)F)ccc21 came out at 39

Just so you know, measured IC50 for Nc1nc2cc(C(=O)N(Cc3ccc(C(F)(F)F)nn3)Cc3c(F)cccc3F)[nH]c2c2c1COC2 came out at 13

Just so you know, measured IC50 for CCN(C(=O)c1cc2nc(N)c3c(c2[nH]1)CO[C@@H]3C)[C@@H](C)c1ncc(C(F)(F)F)cc1F came out at 1830

Just so you know, measured IC50 for N#Cc1cnccc1-c1ccc(CN(C(=O)c2cc3nc(N)c4c(c3[nH]2)COC4)[C@@H]2CCCc3cccnc32)nc1 came out at 3.8

Just so you know, measured IC50 for CCN(C(=O)c1cc2nc(N)c3c(c2[nH]1)COC3)[C@@H]1COCc2cc(F)cc(F)c21 came out at 41

Just so you know, measured IC50 for N#Cc1ccc(CN(Cc2c(F)cccc2F)C(=O)c2cc3nc(N)c4c(c3[nH]2)COC4)nc1 came out at 3.9

Just so you know, measured IC50 for CCN(C(=O)c1cc2nc(N)c3c(c2[nH]1)COC3)[C@H](C)c1ncc(N2CCOCC2)cc1F came out at 45

Just so you know, measured IC50 for CCN(C(=O)c1cc2nc(N)c3c(c2[nH]1)CO[C@@H]3C)[C@@H](C)c1ccc(C(F)(F)F)cc1F came out at 236

Just so you know, measured IC50 for C[C@H]1OCc2c1c(N)nc1cc(C(=O)N(Cc3ccc(C(F)(F)F)cn3)Cc3ncccc3F)[nH]c21 came out at 6.3

Just so you know, measured IC50 for CC(=O)N1Cc2cc(C(F)(F)F)ccc2[C@@H](N(C)C(=O)c2cc3nc(N)c4c(c3[nH]2)COC4)C1 came out at 722

Just so you know, measured IC50 for CN(C(=O)c1cc2nc(N)c3c(c2[nH]1)COC3)[C@@H]1COCc2nc(C3CC3)ccc21 came out at 67

Just so you know, measured IC50 for CN(C(=O)c1cc2nc(N)c3c(c2[nH]1)COC3)[C@H]1COC2(CC2)c2cc(C(F)(F)F)cc(F)c21 came out at 697

Just so you know, measured IC50 for CO[C@@H]1CCOC[C@H]1N(Cc1ccc(C2CC2)cn1)C(=O)c1cc2nc(N)c3c(c2[nH]1)COC3 came out at 5.8

Just so you know, measured IC50 for CC(C)N(Cc1ncc(C2CC2)cc1F)C(=O)c1cc2nc(N)c3c(c2[nH]1)COC3 came out at 20

Just so you know, measured IC50 for C[C@H]1OCc2c1c(N)nc1cc(C(=O)N(C)[C@@H](C)c3ccc(C(F)(F)F)cc3F)[nH]c21 came out at 1230

Just so you know, measured IC50 for CC(C)[C@@H](C)N(Cc1ncc(C2CC2)cc1F)C(=O)c1cc2nc(N)c3c(c2[nH]1)COC3 came out at 12

Attribution: patent US20240368177A1
